# MEASURED ON: human RET on cells (MCF7/SRE-Luc; HEK293/hGFRα3/hRET/SRE-Luc; HEK293/hGFRα1/hRET/SRE-Luc) (human), P07949
# RUN DESCRIPTION: cell-based or functional assay
RECORDED METRIC: MCF7/SRE-luc Avg. IC50

Recorded MCF7/SRE-luc Avg. IC50, per entry:
H4H8060P (antibody, human IgG4, V domains shown) VH: QVTLKESGPVLVKPTETLTLTCTVSGFSLSSARMGVSWIRQPPGKALEWLAHIFSTDEKSYSTSLKSRLSISKDTSLSQVVLIMTNMDPVDTATYYCARRTTMAPYYYYYGMDVWGHGTTVTVSS VL: AIQMTQSPASLSASVGDRVTITCRASQGIRNDLGWYQQKPGKAPKLLISAASSLQSGVPSRFSGSGSGTDFTLTISSLQPEDFATYYCLQDYKYPWTFGQGTKVEIK	> 100 nM
H4H8080P (antibody, human IgG4, V domains shown) VH: EVQLVESGGGLVQSGGSLRLSCVASGFTFSTYAMTWVRQAPGRGLEWVSAISGSGASTYYADSLKGRFTVSRDNSKNTLYLQMNSLRAEDTAVYYCSKDHRNYDSDYDMDVWGQGTTVTVSS VL: DIQMTQSPSSLSASVGDRVTITCRASQGIRNYLGWYQQKPGKAPKRLIYTASSLQSGVPSRFRGSGSGTEFTLTISSLQPEDFATYYCLQHNSYPYTFGQGTKLEIK	> 100 nM

Turning now to a further record.
# binder H4H8083P (antibody, human IgG4, V domains shown) VH: QVQLVESGGGVVQPGRSLRLSCAASGFTFNNYVMHWVRQAPGKGLEWVALIWYDGSNKYYADSVKGRFTISRDNSKNALNLQMNSLRAEDTAVYFCARVSIAARNYYYGGLDVWGQGTTVTVSS VL: EIVLTQSPGTLSLSPGERATLSCRASQSVSSTYLAWYQQKPGQAPRLLIYGASSRATGIPDRFSGSGSGTDFTLTISRLEPEDFAVYYCQHYGGSPLTFGGGTKVEIK ; its MCF7/SRE-luc Avg. IC50 = > 100 nM
